# targetOfAssay: PHD2 (EGLN1) (Homo sapiens (Human))
# Sequence (Q9GZT9 whole entry): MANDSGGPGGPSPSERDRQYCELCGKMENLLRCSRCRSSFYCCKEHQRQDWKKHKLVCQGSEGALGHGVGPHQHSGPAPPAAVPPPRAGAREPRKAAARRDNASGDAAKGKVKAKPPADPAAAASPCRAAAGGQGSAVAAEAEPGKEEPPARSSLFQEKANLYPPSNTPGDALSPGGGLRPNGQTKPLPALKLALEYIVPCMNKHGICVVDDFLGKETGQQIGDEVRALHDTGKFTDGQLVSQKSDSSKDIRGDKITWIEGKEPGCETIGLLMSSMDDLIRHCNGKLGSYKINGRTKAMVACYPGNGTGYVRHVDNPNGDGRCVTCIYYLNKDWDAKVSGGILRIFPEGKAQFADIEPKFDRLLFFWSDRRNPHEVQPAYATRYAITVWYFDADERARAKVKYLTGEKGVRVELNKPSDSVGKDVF
# methodNotes: HIF-PH assay (14CO2 capture), PHD2 enzyme inhibition
# Format: biochemical
# measurementContext: Table 1; individual measurement; read-out: IC50 (μM) PHD2
# Procedure: Ketoglutaric acid α-[1-^14C]-sodium salt, alpha-ketoglutaric acid sodium salt, and HPLC purified peptide may be obtained from commercial sources, e.g., Perkin-Elmer (Wellesley Mass.), Sigma-Aldrich, and SynPep Corp. (Dublin Calif.), respectively. […] Enzyme activity is determined by capturing ^14CO2 using an assay described by Kivirikko and Myllyla (1982, Methods Enzymol. 82:245-304). […]
Some compounds, each annotated with its measured IC50.
attributeMeasured: IC50

> print(dat)
                                   compound  attributemeasured  endpointresult
1  O=C(O)CCNC(=O)c1ncc2cc(NC(=O)Nc3ccccc3)ccc2c1O               IC50         29.2 µM
2  CC(C)(CNC(=O)c1nc(C#N)c2cc(Oc3ccccc3Cl)ccc2c1O)C(=O)O               IC50         4.79 µM
3  COc1ccc(Oc2ccc3c(O)c(C(=O)NCCCCC(=O)O)ncc3c2)cc1               IC50         13.4 µM
4  CC(C)(CNC(=O)c1nc(C#N)c2cc(Oc3ccc4ccccc4c3)ccc2c1O)C(=O)O               IC50         0.86 µM
5  N#Cc1nc(C(=O)N[C@H]2CC[C@H](C(=O)O)CC2)c(O)c2ccc(Oc3ccccc3)cc12               IC50         93.3 µM
6  CC(C)(CNC(=O)c1nc(C#N)c2cc(Oc3cccnc3)ccc2c1O)C(=O)O               IC50         33.3 µM
7  N#Cc1nc(C(=O)NCC2(C(=O)O)CC[S+]([O-])CC2)c(O)c2ccc(Oc3ccccc3)cc12 (centres unmarked)               IC50          200 µM
8  O=C(O)CCCNC(=O)c1ncc2ccc(Oc3ccccc3)cc2c1O               IC50          200 µM

Values from patent US9409892B2
